biological target: bovine GRK5 (Bos taurus, UniProt P43249); construct: when using full-length kinases as the receptor[37] instead of isolated kinase domains; made in house; assay: Primary DSF inhibitor screen, GRK5; assay type: binding; conditions: rank ordering of compounds in primary DSF screen; 10 μM compound
Sequence (P43249 whole entry, the tested form may be a part): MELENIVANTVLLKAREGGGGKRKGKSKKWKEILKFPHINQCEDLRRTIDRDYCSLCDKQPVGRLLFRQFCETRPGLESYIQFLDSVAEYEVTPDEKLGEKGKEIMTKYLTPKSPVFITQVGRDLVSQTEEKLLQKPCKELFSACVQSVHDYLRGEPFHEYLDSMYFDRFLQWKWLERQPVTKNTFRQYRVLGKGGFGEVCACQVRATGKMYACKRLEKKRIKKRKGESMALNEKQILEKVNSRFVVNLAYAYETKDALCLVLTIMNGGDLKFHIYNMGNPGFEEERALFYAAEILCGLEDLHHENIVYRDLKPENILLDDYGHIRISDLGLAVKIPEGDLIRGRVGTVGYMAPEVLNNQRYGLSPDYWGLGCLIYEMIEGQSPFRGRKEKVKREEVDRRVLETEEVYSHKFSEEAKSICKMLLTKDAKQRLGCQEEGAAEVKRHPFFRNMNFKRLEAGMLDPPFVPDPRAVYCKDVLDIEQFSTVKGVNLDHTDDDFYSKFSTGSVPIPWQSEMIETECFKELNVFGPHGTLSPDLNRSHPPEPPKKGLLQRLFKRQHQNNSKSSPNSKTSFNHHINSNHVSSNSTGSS

compound: Fc1cccc(COc2ccc(Nc3ncnc4cc(-c5ccc[nH]5)sc34)cc2Cl)c1 [GW693881A]
testSystem: bovine GRK5 (Bos taurus, UniProt P43249)
rank in the primary screen, GRK5: 12
//
compound: CCCN1CCC(Oc2cc(Nc3nc(Nc4cccc(F)c4C(N)=O)c4cc[nH]c4n3)c(OC)cc2Cl)CC1 [GSK1713088A]
testSystem: bovine GRK5 (Bos taurus, UniProt P43249)
rank in the primary screen, GRK5: 11
//
compound: COc1cc2c(cc1Nc1nc(Nc3ccsc3C(N)=O)c3cc[nH]c3n1)N(C(=O)CN(C)C)CCC2 [GSK2110236A]
testSystem: bovine GRK5 (Bos taurus, UniProt P43249)
rank in the primary screen, GRK5: 7
//
compound: CN(c1ccc(NC(=O)Nc2ccc(OC(F)(F)F)cc2)cc1)c1ccnc(Nc2cccc(S(N)(=O)=O)c2)n1 [GW806742X]
testSystem: bovine GRK5 (Bos taurus, UniProt P43249)
rank in the primary screen, GRK5: 16
//
compound: COc1cc2c(cc1Nc1nc(Nc3ccsc3C(N)=O)c3cc[nH]c3n1)N(C(=O)CN(C)C)CCC2(C)C [GSK2163632A]
testSystem: bovine GRK5 (Bos taurus, UniProt P43249)
rank in the primary screen, GRK5: 4
//
compound: CNC(=O)c1ncccc1Nc1nc(Nc2cc3c(cc2OC)CCCN3C(=O)CN(C)C)nc2[nH]ccc12 [GSK2220400A]
testSystem: bovine GRK5 (Bos taurus, UniProt P43249)
rank in the primary screen, GRK5: 13
//
compound: CC(C)COC(=O)c1ccc2c(c1)/C(=C/Nc1ccc(S(N)(=O)=O)cc1)C(=O)N2 [GW416981X]
testSystem: bovine GRK5 (Bos taurus, UniProt P43249)
rank in the primary screen, GRK5: 15

---

Biological target: human GRK2S670A (Homo sapiens, UniProt P25098, S670A)
Construct: when using full-length kinases as the receptor[37] instead of isolated kinase domains; made in house
Sequence (P25098 1-689 S670A): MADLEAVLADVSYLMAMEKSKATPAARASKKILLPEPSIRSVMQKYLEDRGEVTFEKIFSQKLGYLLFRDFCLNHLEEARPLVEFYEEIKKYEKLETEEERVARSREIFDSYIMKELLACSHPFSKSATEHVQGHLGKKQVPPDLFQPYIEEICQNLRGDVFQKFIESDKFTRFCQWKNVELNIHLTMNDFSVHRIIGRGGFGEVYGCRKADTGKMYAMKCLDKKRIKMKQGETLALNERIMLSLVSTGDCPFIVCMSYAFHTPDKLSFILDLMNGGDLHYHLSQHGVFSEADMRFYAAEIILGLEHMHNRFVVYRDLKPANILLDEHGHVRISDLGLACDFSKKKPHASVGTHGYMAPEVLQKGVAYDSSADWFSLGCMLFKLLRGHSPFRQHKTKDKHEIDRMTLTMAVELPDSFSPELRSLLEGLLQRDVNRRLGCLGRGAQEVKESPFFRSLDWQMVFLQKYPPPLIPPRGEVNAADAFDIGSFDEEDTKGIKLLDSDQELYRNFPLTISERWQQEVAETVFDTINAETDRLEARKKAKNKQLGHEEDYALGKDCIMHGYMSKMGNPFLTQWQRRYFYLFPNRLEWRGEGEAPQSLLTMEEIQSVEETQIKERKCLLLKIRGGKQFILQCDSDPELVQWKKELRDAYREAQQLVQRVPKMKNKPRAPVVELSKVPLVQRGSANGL
Assay: Primary DSF (differential scanning fluorimetry) inhibitor screen, GRK2
Assay type: binding
Conditions: 10 μM compound, 2 μM kinase, relative to DMSO control
quantity: ΔTm, primary screen, GRK2 (°C)

molecule: CC1=C(C(=O)Nc2ccc3[nH]ncc3c2)C(c2ccc3ccccc3c2)CC(=O)N1 (centres unmarked) [GSK270822A]
testSystem: human GRK2S670A (Homo sapiens, UniProt P25098, S670A)
quantity: ΔTm, primary screen, GRK2
reported: 3.8
//
molecule: CC1=C(C(=O)Nc2ccc3[nH]ncc3c2)C(c2ccc(Cl)c(Cl)c2)CC(=O)N1 (centres unmarked) [GSK299115A]
testSystem: human GRK2S670A (Homo sapiens, UniProt P25098, S670A)
quantity: ΔTm, primary screen, GRK2
reported: 4.8
//
molecule: CC1=C(C(=O)Nc2cc(Cl)c3[nH]ncc3c2)C(c2ccc(C(F)(F)F)cc2)CC(=O)N1 (centres unmarked) [GSK466317A]
testSystem: human GRK2S670A (Homo sapiens, UniProt P25098, S670A)
quantity: ΔTm, primary screen, GRK2
reported: 2.9
//
molecule: CN[C@@H]1C[C@H]2O[C@@](C)([C@@H]1OC)n1c3ccccc3c3c4c(c5c6ccccc6n2c5c31)C(=O)NC4
testSystem: human GRK2S670A (Homo sapiens, UniProt P25098, S670A)
quantity: ΔTm, primary screen, GRK2
reported: 5.4
//
molecule: CCn1c(-c2nonc2N)nc2c(C#CC(C)(C)O)nc(O[C@@H](CN)c3ccccc3)cc21 [GSK1007102B]
testSystem: human GRK2S670A (Homo sapiens, UniProt P25098, S670A)
quantity: ΔTm, primary screen, GRK2
reported: 5.4

All values here come from paper PMC4301037.
